System: Clostridium perfringens
Assay: microbe, parasite or virus in culture
Type: cell-based
Settings: read-out: MIC of the compounds
Consider the following molecules; for each one, report its MIC.
The answer consists of two parts: a number and, after it, its unit.

// solved cases for MIC follow
CO[C@H]1/C=C/O[C@@]2(C)Oc3c(C)c(O)c4c(c3C2=O)C(=O)C=C(NC(=O)/C(C)=C\C=C\[C@H](C)[C@H](O)[C@@H](C)[C@@H](O)[C@@H](C)[C@H](OC(=O)CCl)[C@@H]1C)C4=O [Compound C3, 36-Chlororifamycin S]: 0.3 ng/mL
CO[C@H]1/C=C/O[C@@]2(C)Oc3c(C)c(O)c4c(c3C2=O)C(=O)C(N2CCOCC2)=C(NC(=O)/C(C)=C\C=C\[C@H](C)[C@H](O)[C@@H](C)[C@@H](O)[C@@H](C)[C@H](OC(=O)CBr)[C@@H]1C)C4=O [Compound C8, 36-Bromo-3-(4-morpholinyl)rifamycin S]: 1 ng/mL

Next up:
Request: Quick one: give measured MIC for CO[C@H]1/C=C/O[C@@]2(C)Oc3c(C)c(O)c4c(c3C2=O)C(=O)C=C(NC(=O)/C(C)=C\C=C\[C@H](C)[C@H](O)[C@@H](C)[C@@H](O)[C@@H](C)[C@H](OC(=O)COC(C)=O)[C@@H]1C)C4=O [Compound C13, 36-Acetyloxyrifamycin S]
Result: 0.5 ng/mL

----------
Test system: Staph. aureus rifa-r^(2)
Assay: MIC by broth microdilution
Type: cell-based
Conditions: Staphylococcus aureus, read-out: MIC of the compounds
Consider the following compounds; for each one, report its MIC.
Numbers only, in µg/mL.

// solved cases for MIC follow
CCn1cc(C(=O)OCC(=O)O[C@H]2[C@H](C)[C@H](O)[C@H](C)[C@@H](O)[C@@H](C)/C=C/C=C(/C)C(=O)Nc3c(C=NN4CCN(C5CCCC5)CC4)c(O)c4c5c(c(C)c(O)c4c3O)O[C@](C)(O/C=C/[C@H](OC)[C@H]2C)C5=O)c(=O)c2cc(F)c(N3CCN(C)CC3)cc21: 2
CCn1cc(C(=O)OCC(=O)O[C@H]2[C@H](C)[C@H](O)[C@H](C)[C@@H](O)[C@@H](C)/C=C/C=C(/C)C(=O)Nc3c(C=NN4CCN(C)CC4)c(O)c4c5c(c(C)c(O)c4c3O)O[C@](C)(O/C=C/[C@H](OC)[C@H]2C)C5=O)c(=O)c2cc(F)c(N3CCN(C)CC3)cc21: 1
CO[C@H]1/C=C/O[C@@]2(C)Oc3c(C)c(O)c4c(c3C2=O)C(=O)C=C(NC(=O)/C(C)=C\C=C\[C@H](C)[C@H](O)[C@@H](C)[C@@H](O)[C@@H](C)[C@H](OC(=O)CBr)[C@@H]1C)C4=O: 2

Request: Give MIC only, for CCn1cc(C(=O)OCC(=O)O[C@H]2[C@H](C)[C@H](O)[C@H](C)[C@@H](O)[C@@H](C)/C=C/C=C(/C)C(=O)Nc3c(C=NN4CCN(C)CC4)c(O)c4c5c(c(C)c(O)c4c3O)O[C@](C)(O/C=C/[C@H](OC)[C@H]2C)C5=O)c(=O)c2cnc(N3CCN(C)CC3)nc21 , using Staph. aureus rifa-r^(2) data.
Result: 2

----------
System: Haemoph. influenzae ATCC 19418
readout_kind: MIC
The answer consists of two parts: a number and, after it, its unit.

// solved cases for MIC follow
CO[C@H]1/C=C/O[C@@]2(C)Oc3c(C)c(O)c4c(O)c(c(C=NN5CCN(C)CC5)c(O)c4c3C2=O)NC(=O)/C(C)=C\C=C\[C@H](C)[C@H](O)[C@@H](C)[C@@H](O)[C@@H](C)[C@H](OC(=O)COC(=O)c2cn(C3CC3)c3cc(-c4cc(C)nc(C)c4)c(F)cc3c2=O)[C@@H]1C [Compound C29]: 0.25 µg/mL
CO[C@H]1/C=C/O[C@@]2(C)Oc3c(C)c(O)c4c(c3C2=O)C(=O)C=C(NC(=O)/C(C)=C\C=C\[C@H](C)[C@H](O)[C@@H](C)[C@@H](O)[C@@H](C)[C@H](OC(=O)CSC)[C@@H]1C)C4=O [Compound C4, 36-Methylthiorifamycin S]: 1 µg/mL
CCn1cc(C(=O)OCC(=O)O[C@H]2[C@H](C)[C@H](O)[C@H](C)[C@@H](O)[C@@H](C)/C=C/C=C(/C)C(=O)NC3=CC(=O)c4c(c(O)c(C)c5c4C(=O)[C@@](C)(O/C=C/[C@H](OC)[C@H]2C)O5)C3=O)c(=O)c2cc(F)c(N3CCN(C)CC3)cc21 [Compound C23]: 2 µg/mL
CCn1cc(C(=O)OCC(=O)O[C@H]2[C@H](C)[C@H](O)[C@H](C)[C@@H](O)[C@@H](C)/C=C/C=C(/C)C(=O)Nc3c(C=NN4CCN(C)CC4)c(O)c4c5c(c(C)c(O)c4c3O)O[C@](C)(O/C=C/[C@H](OC)[C@H]2C)C5=O)c(=O)c2cc(F)c(N3CCN(C)CC3)cc21 [Compound C25]: 1 µg/mL

Next up:
Request: Quick one: give measured MIC for CCn1cc(C(=O)OCC(=O)O[C@H]2[C@H](C)[C@H](O)[C@H](C)[C@@H](O)[C@@H](C)/C=C/C=C(/C)C(=O)Nc3c(C=NN4CCN(C)CC4)c(O)c4c5c(c(C)c(O)c4c3O)O[C@](C)(O/C=C/[C@H](OC)[C@H]2C)C5=O)c(=O)c2cnc(N3CCN(C)CC3)nc21 [Compound C28]
Result: 2 µg/mL

----------
System: Haemoph. influenzae ATCC 19418
readout_kind: MIC (µg/mL)
Answers are plain numbers, in µg/mL.

// solved cases for MIC follow
CO[C@H]1/C=C/O[C@@]2(C)Oc3c(C)c(O)c4c(c3C2=O)C(=O)C=C(NC(=O)/C(C)=C\C=C\[C@H](C)[C@H](O)[C@@H](C)[C@@H](O)[C@@H](C)[C@H](OC(=O)CI)[C@@H]1C)C4=O [Compound C10, 36-Iodorifamycin S]: 4
CO[C@H]1/C=C/O[C@@]2(C)Oc3c(C)c(O)c4c(c3C2=O)C(=O)C=C(NC(=O)/C(C)=C\C=C\[C@H](C)[C@H](O)[C@@H](C)[C@@H](O)[C@@H](C)[C@H](OC(=O)CCl)[C@@H]1C)C4=O [Compound C3, 36-Chlororifamycin S]: 1
CO[C@H]1/C=C/O[C@@]2(C)Oc3c(C)c(O)c4c(c3C2=O)C(=O)C(N2CCOCC2)=C(NC(=O)/C(C)=C\C=C\[C@H](C)[C@H](O)[C@@H](C)[C@@H](O)[C@@H](C)[C@H](OC(=O)CBr)[C@@H]1C)C4=O [Compound C8, 36-Bromo-3-(4-morpholinyl)rifamycin S]: 0.13
CO[C@H]1/C=C/O[C@@]2(C)Oc3c(C)c(O)c4c(c3C2=O)C(=O)C=C(NC(=O)/C(C)=C\C=C\[C@H](C)[C@H](O)[C@@H](C)[C@@H](O)[C@@H](C)[C@H](OC(=O)CBr)[C@@H]1C)C4=O [Compound C1, 36-Bromorifamycin S]: 1
CCN(CC)CC(=O)O[C@H]1[C@H](C)[C@H](O)[C@H](C)[C@@H](O)[C@@H](C)/C=C/C=C(/C)C(=O)NC2=CC(=O)c3c(c(O)c(C)c4c3C(=O)[C@@](C)(O/C=C/[C@H](OC)[C@H]1C)O4)C2=O [Compound C12, 36-Diethylaminorifamycin S]: 1
CCn1cc(C(=O)OCC(=O)O[C@H]2[C@H](C)[C@H](O)[C@H](C)[C@@H](O)[C@@H](C)/C=C/C=C(/C)C(=O)NC3=C(N4CCOCC4)C(=O)c4c(c(O)c(C)c5c4C(=O)[C@@](C)(O/C=C/[C@H](OC)[C@H]2C)O5)C3=O)c(=O)c2cc(F)c(N3CCN(C)CC3)cc21 [Compound C24]: 0.13

For each of the items listed, what is its MIC?
1. CO[C@H]1/C=C/O[C@@]2(C)Oc3c(C)c(O)c4c(c3C2=O)C(=O)C=C(NC(=O)/C(C)=C\C=C\[C@H](C)[C@H](O)[C@@H](C)[C@@H](O)[C@@H](C)[C@H](OC(=O)CF)[C@@H]1C)C4=O [Compound C2, 36-Fluororifamycin S]
2. CO[C@H]1/C=C/O[C@@]2(C)Oc3c(C)c(O)c4c(c3C2=O)C(=O)C=C(NC(=O)/C(C)=C\C=C\[C@H](C)[C@H](O)[C@@H](C)[C@@H](O)[C@@H](C)[C@H](OC(=O)COC(C)=O)[C@@H]1C)C4=O [Compound C13, 36-Acetyloxyrifamycin S]

Result:
1: 2; 2: 0.5

----------
Consider the following molecules; for each one, report its MIC.
Tested on: Staph. aureus rifa-r^(2)
Assay: MIC by broth microdilution
Type: cell-based
Details: Staphylococcus aureus, read-out: MIC of the compounds
Numbers only, in µg/mL.

CO[C@H]1/C=C/O[C@@]2(C)Oc3c(C)c(O)c4c(O)c(c(C=NN5CCN(C)CC5)c(O)c4c3C2=O)NC(=O)/C(C)=C\C=C\[C@H](C)[C@H](O)[C@@H](C)[C@@H](O)[C@@H](C)[C@H](OC(=O)COC(=O)c2cn(C3CC3)c3cc(-c4cc(C)nc(C)c4)c(F)cc3c2=O)[C@@H]1C [Compound C29]: 2

For each of the items listed, what is its MIC?
1. CO[C@H]1/C=C/O[C@@]2(C)Oc3c(C)c(O)c4c(c3C2=O)C(=O)C(N2CCOCC2)=C(NC(=O)/C(C)=C\C=C\[C@H](C)[C@H](O)[C@@H](C)[C@@H](O)[C@@H](C)[C@H](OC(=O)CBr)[C@@H]1C)C4=O [Compound C8, 36-Bromo-3-(4-morpholinyl)rifamycin S]
2. CO[C@H]1/C=C/O[C@@]2(C)Oc3c(C)c(O)c4c(c3C2=O)C(=O)C(N2CCOCC2)=C(NC(=O)/C(C)=C\C=C\[C@H](C)[C@H](O)[C@@H](C)[C@@H](O)[C@@H](C)[C@H](OC(=O)CO)[C@@H]1C)C4=O [Compound C15, 36-Hydroxy-3-(4-morpholinyl)rifamycin S]

Result:
[0.5, 4]
